assay: Tryptophan fluorescent binding assay, 3POPC/1POPG vesicles; settings: 50 μM peptide, PBS pH 7.4, lipid per peptide
This section presents molecules with their documented Lipid Concentration-induced 50% Peptide Binding, 3POPC/1POPG Vesicle values.
Unit L/P implied. Number only.

// below: answered molecules
- CC(C)C[C@H](NC(=O)CN)C(=O)N[C@@H](CC(C)C)C(=O)N[C@@H](Cc1c[nH]cn1)C(=O)N[C@@H](CC(C)C)C(=O)N[C@@H](CC(C)C)C(=O)N[C@@H](CCCCN)C(=O)N[C@@H](CC(C)C)C(=O)N[C@@H](CC(C)C)C(=O)N[C@@H](CC(C)C)C(=O)N[C@@H](Cc1c[nH]cn1)C(=O)N[C@@H](C)C(=O)N[C@@H](C)C(=O)NCC(=O)N[C@@H](Cc1c[nH]c2ccccc12)C(N)=O [HKH]: 0.38
- CC(C)C[C@H](NC(=O)CN)C(=O)N[C@@H](CC(C)C)C(=O)N[C@@H](Cc1c[nH]cn1)C(=O)N[C@@H](CC(C)C)C(=O)N[C@@H](CC(C)C)C(=O)N[C@@H](Cc1c[nH]cn1)C(=O)N[C@@H](CC(C)C)C(=O)N[C@@H](CC(C)C)C(=O)N[C@@H](CC(C)C)C(=O)N[C@@H](CCC(=O)O)C(=O)N[C@@H](C)C(=O)N[C@@H](C)C(=O)NCC(=O)N[C@@H](Cc1c[nH]c2ccccc12)C(N)=O [HHE]: 0.75

Task item: Return Lipid Concentration-induced 50% Peptide Binding, 3POPC/1POPG Vesicle (reported value) for this molecule: CC(C)C[C@H](NC(=O)CN)C(=O)N[C@@H](CC(C)C)C(=O)N[C@@H](CCCCN)C(=O)N[C@@H](CC(C)C)C(=O)N[C@@H](CC(C)C)C(=O)N[C@@H](CCCCN)C(=O)N[C@@H](CC(C)C)C(=O)N[C@@H](CC(C)C)C(=O)N[C@@H](CC(C)C)C(=O)N[C@@H](CCC(=O)O)C(=O)N[C@@H](C)C(=O)N[C@@H](C)C(=O)NCC(=O)N[C@@H](Cc1c[nH]c2ccccc12)C(N)=O [KKE]
Reply: 0.44

Task item: Return Lipid Concentration-induced 50% Peptide Binding, 3POPC/1POPG Vesicle (reported value) for this molecule: CC(C)C[C@H](NC(=O)CN)C(=O)N[C@@H](CC(C)C)C(=O)N[C@@H](CCCCN)C(=O)N[C@@H](CC(C)C)C(=O)N[C@@H](CC(C)C)C(=O)N[C@@H](CCC(=O)O)C(=O)N[C@@H](CC(C)C)C(=O)N[C@@H](CC(C)C)C(=O)N[C@@H](CC(C)C)C(=O)N[C@@H](CCC(=O)O)C(=O)N[C@@H](C)C(=O)N[C@@H](C)C(=O)NCC(=O)N[C@@H](Cc1c[nH]c2ccccc12)C(N)=O [KEE]
Reply: 0.20

Task item: Return Lipid Concentration-induced 50% Peptide Binding, 3POPC/1POPG Vesicle (reported value) for this molecule: CC(C)C[C@H](NC(=O)CN)C(=O)N[C@@H](CC(C)C)C(=O)N[C@@H](CC(=O)O)C(=O)N[C@@H](CC(C)C)C(=O)N[C@@H](CC(C)C)C(=O)N[C@@H](CCC(=O)O)C(=O)N[C@@H](CC(C)C)C(=O)N[C@@H](CC(C)C)C(=O)N[C@@H](CC(C)C)C(=O)N[C@@H](Cc1c[nH]cn1)C(=O)N[C@@H](C)C(=O)N[C@@H](C)C(=O)NCC(=O)N[C@@H](Cc1c[nH]c2ccccc12)C(N)=O [DEH]
Reply: 1.50

Task item: Return Lipid Concentration-induced 50% Peptide Binding, 3POPC/1POPG Vesicle (reported value) for this molecule: CC(C)C[C@H](NC(=O)CN)C(=O)N[C@@H](CC(C)C)C(=O)N[C@@H](Cc1c[nH]cn1)C(=O)N[C@@H](CC(C)C)C(=O)N[C@@H](CC(C)C)C(=O)N[C@@H](CCCCN)C(=O)N[C@@H](CC(C)C)C(=O)N[C@@H](CC(C)C)C(=O)N[C@@H](CC(C)C)C(=O)N[C@@H](CCC(=O)O)C(=O)N[C@@H](C)C(=O)N[C@@H](C)C(=O)NCC(=O)N[C@@H](Cc1c[nH]c2ccccc12)C(N)=O [HKE]
Reply: 0.25

The values you see were collected from patent US20250326794A1.
